- Protocol details: in vivo
- Set-up: species or system mice
- Condition: male, CD1, mouse, iv, 1 mg/kg

{"Compound": "O=C(Nc1ccc(C(=O)N2CCC(F)(F)C3(CN3)c3cc(Cl)ccc32)cn1)c1ccccc1C(F)(F)F (stereo not shown)", "clearance (mL/min/kg)": 23.2}

* * *

- Protocol details: in vivo
- Set-up: species or system mice
- Condition: male, CD1, mouse, po, 10 mg/kg
Readout label: bioavailability (%)

{"Compound": "O=C(Nc1ccc(C(=O)N2CCC(F)(F)C3(CN3)c3cc(Cl)ccc32)cn1)c1ccccc1C(F)(F)F (stereo not shown) [Compound 1]", "Readout value": 56}

* * *

- Protocol details: in vivo
- Parameters: species or system mice
- Condition: male, CD1, mouse, iv, 1 mg/kg
Readout label: half-life (min)

{"Compound": "O=C(Nc1ccc(C(=O)N2CCC(F)(F)C3(CN3)c3cc(Cl)ccc32)cn1)c1ccccc1C(F)(F)F (stereo not shown) [Compound 1]", "Readout value": 55.2}

* * *

- Protocol details: in vivo
- Design: species or system mice
- Condition: male, CD1, mouse, po, 10 mg/kg

{"Molecule": "O=C(Nc1ccc(C(=O)N2CCC(F)(F)C3(CN3)c3cc(Cl)ccc32)cn1)c1ccccc1C(F)(F)F (stereo not shown)", "Units text": "min", "half-life": 36}
